Kindly state pKd for each of the entries shown.
Molecular target: T1, human IL-33 (R&D Systems, #3625-IL-010/CF) (human) (UniProt O95760)
T1 sequence (looked up): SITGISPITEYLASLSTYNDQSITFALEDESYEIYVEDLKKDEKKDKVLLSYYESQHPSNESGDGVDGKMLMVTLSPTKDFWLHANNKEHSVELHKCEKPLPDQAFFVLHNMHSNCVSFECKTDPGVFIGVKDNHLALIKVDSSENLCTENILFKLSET
Experiment: SPR Biacore T200, 25 C
Give bare numbers, as −log10 of the molar value.

[
  {
    "binder": "H4H9666P (antibody, from another filing, IgG4, V domains shown) VH: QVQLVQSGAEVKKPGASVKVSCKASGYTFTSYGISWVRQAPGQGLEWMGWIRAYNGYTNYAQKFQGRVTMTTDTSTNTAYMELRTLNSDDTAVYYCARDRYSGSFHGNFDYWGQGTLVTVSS VL: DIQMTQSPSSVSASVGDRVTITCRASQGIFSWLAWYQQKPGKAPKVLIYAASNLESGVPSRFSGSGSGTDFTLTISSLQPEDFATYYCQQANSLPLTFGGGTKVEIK",
    "pKd": 8.76
  }
]

Now examine the next entry.
Exercise: For the binder shown here, H4H9664P (antibody, from another filing, IgG4, V domains shown) VH: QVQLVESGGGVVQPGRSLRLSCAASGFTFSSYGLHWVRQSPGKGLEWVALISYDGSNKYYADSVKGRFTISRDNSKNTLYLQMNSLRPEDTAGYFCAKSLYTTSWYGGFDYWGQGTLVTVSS VL: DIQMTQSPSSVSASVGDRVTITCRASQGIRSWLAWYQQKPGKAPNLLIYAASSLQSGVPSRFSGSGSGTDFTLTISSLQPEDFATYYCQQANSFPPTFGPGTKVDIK , give the reported pKd.
Solution: 8.88
